# measurement-protocol: Residual rate of the active substance in monomer solution (HPLC)
# Type: physicochemical
# conditions: in 2-Ethylhexyl Acrylate
Task for the reader: assign each of the following molecules its reported Residual Rate (% by weight) Immediately after Preparation.
One number for each entry, in % by weight.

Check out these entries, answers already filled in.
// sample "COc1ccc2c(c1)c(CC(=O)O)c(C)n2C(=O)c1ccc(Cl)cc1" , its Residual Rate (% by weight) Immediately after Preparation was 100

// sample O=[N+]([O-])O[C@H]1CO[C@H]2[C@@H]1OC[C@H]2O[N+](=O)[O-] [ISDN, isosorbide dinitrate] , its Residual Rate (% by weight) Immediately after Preparation was 100

// sample CC(C)(C)NCC(O)c1ccccc1Cl (stereo not shown) , its Residual Rate (% by weight) Immediately after Preparation was 100

Continue with the molecule presented below.
// sample COc1ccc(OC)c(C(O)CN)c1 (stereo not shown) , its Residual Rate (% by weight) Immediately after Preparation was 39

These data points were gathered from patent US20090317452A1.
